assay_text: chemical genetic growth profiling, strain panel (AID 1159580);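 also: tested at 20 µM; growth read once vehicle control cultures reached saturation at 30 °C; 1 = growth at the plate median or of vehicle wells; lower values mean less growth of the strain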
run_conditions: S. cerevisiae deletion strains, growth OD, locus YER155C, strain BEM2 (second series)
The whole screen tested about 5,500 compounds, of which about 2,000 (36%) were called active. Another 18% or so got no clear call; they are omitted. Rule as the data show it: active = normalized growth mostly below about 0.91 (no sharp cut-off); inconclusive = no clear call, values can overlap the other calls; inactive = mostly above about 0.92. The list shows a part of the results.
Answer with one of the outcomes label 1 for active, label 0 for inactive

Some solved cases for reference:
NC(N)=NCCN1CCCCCCC1 :: label 0
O=C(O)C(O)C(O)C(=O)O (stereo not drawn) :: label 0
CN[C@@H]1C(OC2[C@H](O[C@H]3[C@H](O)[C@@H](O)[C@H](N=C(N)N)[C@@H](O)[C@@H]3N=C(N)N)OC(C)[C@]2(O)CO)OC(CO)C(O)C1O (stereo partly drawn) :: label 0
NCC[C@@H](O)C(=O)N[C@@H]1C[C@H](N)[C@@H](O[C@H]2O[C@H](CN)[C@@H](O)[C@H](O)[C@H]2O)[C@H](O)[C@H]1O[C@H]1O[C@H](CO)[C@@H](O)[C@H](N)C1O (stereo partly drawn) :: label 0
CC(C)(S)[C@@H](N)C(=O)O :: label 0
CC[C@@H]1OC(=O)C[C@@H](O)[C@H](C)[C@@H](O[C@@H]2O[C@H](C)[C@@H](O)[C@H](N(C)C)[C@H]2O)[C@@H](CCN2C[C@H](C)C[C@H](C)C2)C[C@@H](C)C(=O)/C=C/C(C)=C\[C@@H]1CO[C@@H]1O[C@H](C)[C@@H](O)[C@@H](OC)[C@H]1OC :: label 0
Cc1oncc1C(=O)Nc1ccc(C(F)(F)F)cc1 :: label 1

Note: attention shifts to another entry.
Q: What call does the record list for "N[C@@H](C(=O)O)[C@@H](O)[C@H](O)[C@H](O)CO" ?
A: label 0

* * *

assay_text: chemical genetic growth profiling, strain panel (AID 1159580)
run_conditions: S. cerevisiae deletion strains, growth OD, locus YER015W, strain faa2, stronger effect = lower value
Hit rate of the full screen: of about 5,500 compounds, about 2,000 (36%) were called active. Not shown: some 18% with an inconclusive outcome. The list shows a part of the results.
# normalized growth listing for each entry below
Just the number, please.

COc1ccc2c(c1)OCC(Cc1ccc(OC)c(OC(C)=O)c1)C2=O (centres undefined) :: 0.98

Moving on to the next compound.
Sure, the documented normalized growth for CC(=O)O[C@@H]1CC2C(C)(C)[C@@H](O)CC[C@]2(C)C2CC[C@@]3(C)[C@H](c4ccoc4)OC(=O)[C@H]4O[C@]43[C@@]21C (some centres undefined) is 0.996

* * *

assay_text: chemical genetic growth profiling, strain panel (AID 1159580)
run_conditions: S. cerevisiae deletion strains, growth OD, locus YKL085W, strain MDH1 (second series)
The whole screen tested about 5,500 compounds, of which about 2,000 (36%) were called active. About 18% were inconclusive and are not listed. Cut-off read from the data, not from the text of the source: active = normalized growth mostly below about 0.91 (no sharp cut-off); inconclusive = no clear call, values can overlap the other calls; inactive = mostly above about 0.92. The list shows a part of the results.
Answer with one of the outcomes active, inactive

CC(=O)O[C@H]1CC[C@@]2(C)C(C[C@@H](OC(C)=O)[C@]3(C)C2CC[C@@]2(C)[C@H](c4ccoc4)OC(=O)[C@H]4O[C@]423)C1(C)C (stereo not given in full) :: inactive
Cc1onc(-c2ccccc2)c1-c1ccc(S(N)(=O)=O)cc1 :: inactive

Q: What call does the record list for "NCCCNCCSP(=O)(O)O" ?
A: inactive

* * *

assay_text: chemical genetic growth profiling, strain panel (AID 1159580);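 also: tested at 20 µM; growth read once vehicle control cultures reached saturation at 30 °C; 1 = growth at the plate median or of vehicle wells; lower values mean less growth of the strain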
run_conditions: S. cerevisiae deletion strains, growth OD, locus YMR307W, strain GAS1, stronger effect = lower value
In all, about 5,500 compounds went through this assay and about 2,000 (36%) were called active. Another 18% or so got no clear call; they are omitted. The list shows a part of the results.
# normalized growth listing for each entry below
Just the number, please.

Reference set (5 entries):
O=C1CCc2cccc3cccc1c23 :: 1.03
Clc1cnc(Oc2ccc(Oc3ncc(Cl)cc3Cl)cc2)c(Cl)c1 :: 1.02
COP(=S)(OC)Oc1ccc([N+](=O)[O-])cc1 :: 1.03
COc1ccc2c(c1)OCC(Cc1ccc(OC)c(OC)c1)C2=O (stereo unspecified) :: 0.83
N/C(=N/OC(=O)Nc1ccccc1)c1ccc(C2SCCS2)cc1 :: 0.557

Sure, the documented normalized growth for "NC(=NCc1ccc(Cl)c(Cl)c1)NC(=O)c1nc(Cl)c(N)nc1N" is 0.993

* * *

assay_text: chemical genetic growth profiling, strain panel (AID 1159580);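 also: tested at 20 µM; growth read once vehicle control cultures reached saturation at 30 °C; 1 = growth at the plate median or of vehicle wells; lower values mean less growth of the strain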
run_conditions: S. cerevisiae deletion strains, growth OD, locus YNL271C, strain bni1, stronger effect = lower value
In all, about 5,500 compounds went through this assay and about 2,000 (36%) were called active. Roughly 18% stayed inconclusive and do not appear here. Some of the results follow.
observable: normalized growth
Just the number, please.

Reference set (8 entries):
C[C@@H]1CC[C@H]2C(C)(C)C3CC12CC[C@@]3(C)O (some centres not stated) :: 0.938
O=C(O)C(O)C(O)C(O)C(O)C(=O)O (configuration not stated) :: 0.984
CC1[C@H](C)OC(=O)CC(O)CC(O)CC(O)CCC(O)C(O)C[C@]2(O)CC(O)C(C(=O)O)C(CC(OC3O[C@H](C)[C@@H](O)[C@H](N)[C@@H]3O)/C=C/C=C/C=C/C=C/CC/C=C/C=C/[C@H](C)[C@H]1O)O2 (some centres not stated) :: 0.0657
CC(=O)O[C@@H]1CC2C(C)(C)C(=O)C3OC3[C@]2(C)C2CC[C@@]3(C)[C@H](c4ccoc4)OC(=O)C4OC43[C@@]21C (some centres not stated) :: 1
Cc1cc(CC(=O)O)n(C)c1C(=O)c1ccc(Cl)cc1 :: 1.01
Cc1ccc(C(=O)c2ccc(CC(=O)O)n2C)cc1 :: 0.968
CC(=O)O[C@@H]1CC2C(C)(C)[C@H](O)CC[C@]2(C)C2CC[C@@]3(C)[C@H](c4ccoc4)OC(=O)C4OC43[C@@]21C (some centres not stated) :: 0.991
CC(=O)O[C@H]1C[C@@]2(C)[C@@H](C[C@@H](O)C3[C@]2(C)CC[C@H]2[C@H](C)[C@H](O)CC[C@]32C)/C1=C(/CCC=C(C)C)C(=O)O (some centres not stated) :: 1.02

Sure, the documented normalized growth for "COc1ccc2c(=O)c(OC)c(-c3ccccc3)oc2c1" is 0.921

Sure, the documented normalized growth for CC1(C)C(=O)[C@@H]2O[C@@H]2[C@@]2(C)C1C[C@@H](O)[C@]1(C)C2CC[C@@]2(C)[C@H](c3ccoc3)OC(=O)C3OC321 (some centres not stated) is 0.989

Sure, the documented normalized growth for "CCCNC(=O)NS(=O)(=O)c1ccc(Cl)cc1" is 1.01

Sure, the documented normalized growth for CNc1ccc(C(=O)CC(O)CCC(C)C2OC(=O)CC(O)CC(=O)CC(O)CC(O)CC(O)CC(O)CC3(O)CC(O)C(C(=O)OC)C(CC(OC4OC(C)C(O)C(N)C4O)/C=C/C=C/C=C/C=C/C=C/C=C/C=C/C2C)O3)cc1 (configuration not stated) is 0.0615

Sure, the documented normalized growth for CC(=O)C1CC[C@H]2C3CC[C@H]4C[C@H](O)CC[C@]4(C)C3CC[C@]12C (some centres not stated) is 0.986

Sure, the documented normalized growth for "N[C@@H](C(=O)O)[C@@H](O)[C@H](O)[C@H](O)CO" is 1.03

Sure, the documented normalized growth for "CC(=O)NCCc1c[nH]c2ccc(O)cc12" is 0.982

Sure, the documented normalized growth for "COc1c(C)c2c(c(O)c1C/C=C(\C)CCC(=O)O)C(=O)OC2" is 0.335

Sure, the documented normalized growth for CC(=O)C1CCC2C3CCC4C[C@H](O)CCC4(C)C3C[C@H](O)C12C (some centres not stated) is 1.01

* * *

assay_text: chemical genetic growth profiling, strain panel (AID 1159580);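 also: tested at 20 µM; growth read once vehicle control cultures reached saturation at 30 °C; 1 = growth at the plate median or of vehicle wells; lower values mean less growth of the strain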
run_conditions: S. cerevisiae deletion strains, growth OD, locus YGL253W, strain hxk2, stronger effect = lower value
In all, about 5,500 compounds went through this assay and about 2,000 (36%) were called active. About 18% were inconclusive and are not listed. The list shows a part of the results.
# normalized growth listing for each entry below
Just the number, please.

Reference set (2 entries):
CCC(C)C(=O)c1c(O)c(C)c2oc3c(C)c(O)c(C(=O)C(C)CC)c(O)c3c2c1O (stereo not drawn) :: 1
c1ccc2c(CC3=NCCN3)cccc2c1 :: 0.98

Sure, the documented normalized growth for CC(C)/C(O)=C1/C(=O)O[C@@H](c2ccoc2)[C@]2(C)C(O)[C@@H](O)[C@@]34OC5(C)OC67CC(C)(C(O)[C@]6(O)[C@@H](O)[C@]3(O5)C12)[C@H](CC(=O)O)[C@]74C (stereo partly drawn) is 1.01

Sure, the documented normalized growth for O=C(O)CCC1NCC2CC1CN1CCCCC21 (stereo not drawn) is 0.978

Sure, the documented normalized growth for "CC(=O)OC/C=C(\C)CC/C=C(\C)CC/C=C(\C)CC/C=C(\C)CC/C=C(\C)CC/C=C(\C)CC/C=C(\C)CC/C=C(\C)CCC=C(C)C" is 0.964

Sure, the documented normalized growth for CC(=O)O[C@@H]1CC2C(C)(C)C(=O)C3OC3[C@]2(C)C2CC[C@@]3(C)[C@H](c4ccoc4)OC(=O)C4OC43[C@@]21C (stereo partly drawn) is 0.94

Sure, the documented normalized growth for "O=c1oc2ccccc2cc1O" is 0.994

Sure, the documented normalized growth for CC(=O)O[C@H]1CC[C@@]2(C)C(C[C@@H](OC(C)=O)[C@]3(C)C2CC[C@@]2(C)[C@H](c4ccoc4)OC(=O)[C@H]4O[C@]423)C1(C)C (stereo partly drawn) is 1
